Reported SODIUM values follow for various molecules
Species on record: Rattus norvegicus
experiment-notes: DrugMatrix - Regimen: Daily Repeat
Type: toxicity, organism-based, Sprague-Dawley
Set-up: regimen Daily Repeat, gender Male, age 6-8 weeks
run-parameters: in vivo, po, 0 mg/kg, 72 h, tissue Plasma, route oral GAVAGE, dose level Control, time 3 day, vehicle 100 % WATER
reported-endpoint: SODIUM (MEQ/L)

Clc1ccc(C(c2ccccc2Cl)C(Cl)Cl)cc1 (centres undefined) : 145.2
COc1cc2c(N3CCN(C(=O)Nc4ccc(OC(C)C)cc4)CC3)ncnc2cc1OCCCN1CCCCC1 : 146.67
Cc1cc(NS(=O)(=O)c2ccc(N)cc2)no1 : 144.22
CNCCC=C1c2ccccc2CCc2ccccc21 : 142.88
Fc1ccc([C@@H]2CCNC[C@H]2COc2ccc3c(c2)OCO3)cc1 : 144.12
NNC(=O)c1ccncc1 : 144.27
O=C1NC(=O)C(c2ccccc2)(c2ccccc2)N1 : 142.88
CC(CCc1ccccc1)NCC(O)c1ccc(O)c(C(N)=O)c1 (centres undefined) : 143.9
CC1(C)S[C@@H]2[C@H](NC(=O)[C@H](N)c3ccc(O)cc3)C(=O)N2[C@H]1C(=O)O : 141.53

* * *

Organism: Rattus norvegicus
experiment-notes: DrugMatrix - Regimen: Daily Repeat
Type: toxicity, organism-based, Sprague-Dawley
Design: regimen Daily Repeat, gender Male, age 6-8 weeks
run-parameters: in vivo, po, 1500 mg/kg, 120 h, tissue Blood, route oral GAVAGE, dose level High, time 5 day, vehicle .5 % CMC
reported-endpoint: MEAN CORPUSCULAR VOLUME (fL)

COC(=O)c1ccc(O)cc1 : 63.6
CCOC(=O)[C@H](CCc1ccccc1)N[C@@H](C)C(=O)N1[C@H](C(=O)O)C[C@@H]2CCC[C@@H]21 : 61.63
O=C1CCc2cc(OCCCCc3nnnn3C3CCCCC3)ccc2N1 : 64.47
NS(=O)(=O)c1cc2c(cc1Cl)NCNS2(=O)=O [HYDROCHLOROTHIAZIDE] : 60.63

* * *

Organism: Rattus norvegicus
experiment-notes: DrugMatrix - Regimen: Daily Repeat
Type: toxicity, organism-based, Sprague-Dawley
Design: regimen Daily Repeat, gender Male, age 6-8 weeks
run-parameters: in vivo, po, 0 mg/kg, 120 h, tissue Blood, route oral GAVAGE, dose level Control, time 5 day, […]
Reported EOSINOPHIL values follow for various molecules
reported-endpoint: EOSINOPHIL (%)

CC(C)(Oc1ccc(CCNC(=O)c2ccc(Cl)cc2)cc1)C(=O)O [BEZAFIBRATE] : 0.58
COC1=CC(=O)C[C@@H](C)[C@]12Oc1c(Cl)c(OC)cc(OC)c1C2=O : 0.33
CN(C)CCCC1(c2ccc(F)cc2)OCc2cc(C#N)ccc21 (stereo unspecified) : 0
CC(C)n1c(/C=C/C(O)CC(O)CC(=O)O)c(-c2ccc(F)cc2)c2ccccc21 (stereo unspecified) : 0.17
CCCC[C@@H](CC)COC(=O)c1ccccc1C(=O)OC[C@@H](CC)CCCC [BIS(2-ETHYLHEXYL)PHTHALATE] : 0.17
CC1=C(/C=C/C(C)=C/C=C/C(C)=C\C(=O)O)C(C)(C)CCC1 : 0

* * *

Reported ABSOLUTE MONOCYTE values follow for various substances
Species: Rattus norvegicus
experiment-notes: DrugMatrix - Regimen: Daily Repeat
Format: toxicity, organism-based, Sprague-Dawley
Set-up: regimen Daily Repeat, gender Male, age 6-8 weeks
run-parameters: in vivo, ip, 0 mg/kg, […], tissue Blood, route intraperitoneal, dose level Control, time 14 day, vehicle 100 % SALINE
reported-endpoint: ABSOLUTE MONOCYTE

GOLD SODIUM THIOMALATE : 400 cells/µL
CISPLATIN : 400 cells/µL
CARBOPLATIN : 400 cells/µL

* * *

Species: Rattus norvegicus
experiment-notes: DrugMatrix - Regimen: Daily Repeat
Type: toxicity, organism-based, Sprague-Dawley
Set-up: regimen Daily Repeat, gender Male, age 6-8 weeks
run-parameters: in vivo, po, 0 mg/kg, 72 h, tissue Blood, route oral GAVAGE, dose level Control, time 3 day, vehicle .5 % CMC
reported-endpoint: HEMOGLOBIN (G/DL)

CCc1cccc2c3c([nH]c12)C(CC)(CC(=O)O)OCC3 (centres undefined) [ETODOLAC] : 13.62
O=c1[nH]cc(F)c(=O)[nH]1 [FLUOROURACIL] : 12.73
COc1c(C)c2c(c(O)c1C/C=C(\C)CCC(=O)OCCN1CCOCC1)C(=O)OC2 [MYCOPHENOLATE MOFETIL] : 13.82
NCC(=O)O [GLYCINE] : 14.82
Brc1ccccc1 [BROMOBENZENE] : 12.78
CN1CCC[C@@H]1CCO[C@](C)(c1ccccc1)c1ccc(Cl)cc1 [CLEMASTINE] : 13.82
CCC[C@@H]1C[C@@H](C(=O)N[C@@H]([C@H]2O[C@H](SC)[C@H](O)[C@@H](O)[C@H]2O)[C@@H](C)O)N(C)C1 [LINCOMYCIN] : 14.22
Cc1c(-c2ccccc2)oc2c(C(=O)OCCN3CCCCC3)cccc2c1=O [FLAVOXATE] : 13.82
COC(=O)c1ccc(O)cc1 [METHYLPARABEN] : 13.8
CCc1ccc(C(=O)C(C)CN2CCCCC2)cc1 (centres undefined) [EPERISONE] : 12.75
C[C@]12CCC(=O)C=C1CC[C@@H]1[C@@H]2C(=O)C[C@@]2(C)[C@H]1CC[C@]2(O)C(=O)CO [CORTISONE] : 13.62
CC(/C=C1\SC(=S)N(CC(=O)O)C1=O)=C\c1ccccc1 : 13.82
CC(C)[C@H](N)C(=O)OCCOCn1cnc2c(=O)[nH]c(N)nc21 [VALACYCLOVIR] : 13.68
CN1C(C(=O)Nc2ccccn2)=C(O)c2ccccc2S1(=O)=O [PIROXICAM] : 14.26
CC[C@H]1OC(=O)[C@H](C)[C@@H](O[C@H]2C[C@@](C)(OC)[C@@H](O)[C@H](C)O2)[C@H](C)[C@@H](O[C@@H]2O[C@H](C)C[C@H](N(C)C)[C@H]2O)[C@](C)(O)C[C@@H](C)/C(=N\OCOCCOC)[C@H](C)[C@@H](O)[C@]1(C)O [ROXITHROMYCIN] : 13.62
CCOC(=O)OC(C)OC1=C(C(=O)Nc2ccccn2)N(C)S(=O)(=O)c2ccccc21 (centres undefined) [AMPIROXICAM] : 12.78
O=C1CCc2cc(OCCCCc3nnnn3C3CCCCC3)ccc2N1 [CILOSTAZOL] : 14.1
CC1(C)[C@H]2CC[C@]1(C)C(=O)C2 [(-)-CAMPHOR] : 13.45
C=C1CC[C@H](O)C/C1=C/C=C1\CCC[C@]2(C)[C@@H]([C@H](C)/C=C/[C@H](C)C(C)C)CC[C@@H]12 [ERGOCALCIFEROL] : 12.43

* * *

Species: Rattus norvegicus
experiment-notes: DrugMatrix - Regimen: Daily Repeat
Assay type: toxicity, organism-based, Sprague-Dawley
Design: regimen Daily Repeat, gender Male, age 6-8 weeks
run-parameters: in vivo, po, 0 mg/kg, 120 h, tissue Plasma, route oral GAVAGE, dose level Control, time 5 day, vehicle 100 % WATER
Reported POTASSIUM values follow for various molecules
reported-endpoint: POTASSIUM (MEQ/L)

COc1cc2c(N3CCN(C(=O)Nc4ccc(OC(C)C)cc4)CC3)ncnc2cc1OCCCN1CCCCC1 : 6.03
CC(CCc1ccccc1)NCC(O)c1ccc(O)c(C(N)=O)c1 (stereo not given) : 6.4
NCC1(CC(=O)O)CCCCC1 : 5.98
O=C1NC(=O)C(c2ccccc2)(c2ccccc2)N1 : 6.39
CC(C)(S)[C@@H](N)C(=O)O : 6.11
NC(=O)c1ncn([C@@H]2O[C@H](CO)[C@@H](O)[C@H]2O)n1 : 6.86
CN1CCC[C@H]1c1cccnc1 : 6.81
COc1cccc(C2(O)CCCCC2CN(C)C)c1 (stereo not given) : 6
Nc1ccc(S(=O)(=O)Nc2ccnn2-c2ccccc2)cc1 : 6.29
NNC(=O)c1ccncc1 : 6.76

* * *

Reported ALKALINE PHOSPHATASE values follow for various molecules
Organism: Rattus norvegicus
experiment-notes: DrugMatrix - Regimen: Daily Repeat
Format: toxicity, organism-based, Sprague-Dawley
Set-up: regimen Daily Repeat, gender Male, age 6-8 weeks
run-parameters: in vivo, po, 0 mg/kg, 72 h, tissue Plasma, route oral GAVAGE, dose level Control, time 3 day, vehicle .5 % CMC
reported-endpoint: ALKALINE PHOSPHATASE (u/L)

CCc1ccc(C(=O)C(C)CN2CCCCC2)cc1 (stereo not given) : 388.83
CC1(C)[C@H]2CC[C@]1(C)C(=O)C2 [(-)-CAMPHOR] : 398.83
CN1C(C(=O)Nc2ccccn2)=C(O)c2ccccc2S1(=O)=O : 368.33
O=C1CCc2cc(OCCCCc3nnnn3C3CCCCC3)ccc2N1 : 388.17
Cc1c(-c2ccccc2)oc2c(C(=O)OCCN3CCCCC3)cccc2c1=O [FLAVOXATE] : 427.67

Attribution: ChEMBL document CHEMBL3885881
